Catalogue of compounds with associated MIC
tested on: Klebsiella pneumoniae; assay: Antibacterial activity against Klebsiella pneumoniae after 18 hrs; format: functional
Please state the figure in µg/mL; there is no need to write the unit.

Query COc1ccc2c3c1O[C@H]1C[C@@H](OP(=O)(NCCO)Oc4ccc([N+](=O)[O-])cc4)C=C[C@@]31CCN(C)C2 (some centres undefined) yields MIC of 0.42

Query COc1ccc2c3c1O[C@H]1C[C@@H](OP(=O)(NCCN)Oc4ccc([N+](=O)[O-])cc4)C=C[C@@]31CCN(C)C2 (some centres undefined) yields MIC of 0.38

Query COc1ccc2c3c1O[C@H]1C[C@@H](OP(=O)(SCCO)N(CCCl)CCCl)C=C[C@@]31CCN(C)C2 (some centres undefined) yields MIC of 0.59

Query COc1ccc2c3c1O[C@H]1C[C@@H](OP(=O)(OCCO)Oc4ccc([N+](=O)[O-])cc4)C=C[C@@]31CCN(C)C2 (some centres undefined) yields MIC of 0.39

====

tested on: Klebsiella pneumoniae; assay: Antibacterial activity against Klebsiella pneumoniae after 18 hrs; assay type: functional
Measurement Label: MIC (µg/mL)
Please state the figure in µg/mL; there is no need to write the unit.

COc1ccc2c3c1O[C@H]1C[C@@H](O)C=C[C@@]31CCN(C)C2; 0.62
COc1ccc2c3c1O[C@H]1C[C@@H](OP(=O)(OP(=O)(O)O)N(CCCl)CCCl)C=C[C@@]31CCN(C)C2 (stereo partly drawn); 0.48
COc1ccc2c3c1O[C@H]1C[C@@H](OP(=O)(Oc4ccc([N+](=O)[O-])cc4)OP(=O)(O)O)C=C[C@@]31CCN(C)C2 (stereo partly drawn); 0.28
COc1ccc2c3c1O[C@H]1C[C@@H](OP(=O)(NCCN)N(CCCl)CCCl)C=C[C@@]31CCN(C)C2 (stereo partly drawn); 0.33
COc1ccc2c3c1O[C@H]1C[C@@H](OP(=O)(Oc4ccc([N+](=O)[O-])cc4)SCCO)C=C[C@@]31CCN(C)C2 (stereo partly drawn); 0.36

Query COc1ccc2c3c1O[C@H]1C[C@@H](OP(=O)(NCCO)N(CCCl)CCCl)C=C[C@@]31CCN(C)C2 (stereo partly drawn) yields MIC of 0.15

Query O=C(N[C@H](CO)[C@H](O)c1ccc([N+](=O)[O-])cc1)C(Cl)Cl yields MIC of 0.13

Query COc1ccc2c3c1O[C@H]1C[C@@H](OP(=O)(OCCO)N(CCCl)CCCl)C=C[C@@]31CCN(C)C2 (stereo partly drawn) yields MIC of 0.57

====

test system: Bacillus subtilis; test: Antibacterial activity against Bacillus subtilis at 1 mg/mL after 18 hrs by disc diffusion assay; type: functional; conditions: read-out: IZ
Catalogue of compounds with associated zone of inhibition at 1000 µg/mL

Check out these entries, answers already filled in.
COc1ccc2c3c1O[C@H]1C[C@@H](O)C=C[C@@]31CCN(C)C2 [GALANTAMINE]; 1.65 mm
COc1ccc2c3c1O[C@H]1C[C@@H](OP(=O)(NCCO)N(CCCl)CCCl)C=C[C@@]31CCN(C)C2 (stereo not given in full); 2.22 mm
COc1ccc2c3c1O[C@H]1C[C@@H](OP(=O)(Oc4ccc([N+](=O)[O-])cc4)OP(=O)(O)O)C=C[C@@]31CCN(C)C2 (stereo not given in full); 2.05 mm
COc1ccc2c3c1O[C@H]1C[C@@H](OP(=O)(NCCN)Oc4ccc([N+](=O)[O-])cc4)C=C[C@@]31CCN(C)C2 (stereo not given in full); 1.93 mm

Read the next record carefully.
Query COc1ccc2c3c1O[C@H]1C[C@@H](OP(=O)(Oc4ccc([N+](=O)[O-])cc4)SCCO)C=C[C@@]31CCN(C)C2 (stereo not given in full) yields zone of inhibition at 1000 µg/mL of 1.81 mm

====

test system: Escherichia coli; assay: Antibacterial activity against Escherichia coli at 1 mg/mL after 18 hrs by disc diffusion assay; format: functional; conditions: read-out: IZ
Catalogue of compounds with associated zone of inhibition at 1000 µg/mL
Dear colleague, please send the value followed by its unit.

Query COc1ccc2c3c1O[C@H]1C[C@@H](OP(=O)(OCCO)N(CCCl)CCCl)C=C[C@@]31CCN(C)C2 (stereo partly drawn) yields zone of inhibition at 1000 µg/mL of 1.57 mm

Query COc1ccc2c3c1O[C@H]1C[C@@H](OP(=O)(NCCN)N(CCCl)CCCl)C=C[C@@]31CCN(C)C2 (stereo partly drawn) yields zone of inhibition at 1000 µg/mL of 2.33 mm

Query COc1ccc2c3c1O[C@H]1C[C@@H](OP(=O)(NCCO)Oc4ccc([N+](=O)[O-])cc4)C=C[C@@]31CCN(C)C2 (stereo partly drawn) yields zone of inhibition at 1000 µg/mL of 1.62 mm
